These measurements were taken from ChEMBL document CHEMBL5620437.

- protocol text: Drug concentration in NOD-SCID mouse plasma at 25 mg/kg, po measured at 1 hrs by LC-MS/MS analysis
- Format: ADME, organism-based
Reported concentration at 1 h values are given for each entry in this list.

# structure string, concentration at 1 h [nM]
measured = [
    ("COc1cc(-c2cncc3c2CCOc2cc(N4CCNCC4)ccc2-3)cc(OC)c1OC", 1070),
    ("COc1cc(-c2cncc3c2CN(C)Cc2cc(N4CCNCC4)ccc2-3)cc(OC)c1OC", 466),
    ("COc1cc(-c2cncc3c2CN(C)Cc2cc(N4CCN(C)CC4)ccc2-3)cc(OC)c1OC", 254),
    ("COc1cc(-c2cncc(-c3ccc(N4CCNCC4)cc3)c2C)cc(OC)c1OC", 4280),
    ("COc1cc(-c2cncc3c2CCOc2cc(N4CCN(C)CC4)ccc2-3)cc(OC)c1OC", 5050),
]
